Target: T1, KGF (hKGF) (Homo sapiens, UniProt P21781 P21781:32-194)
T1 sequence: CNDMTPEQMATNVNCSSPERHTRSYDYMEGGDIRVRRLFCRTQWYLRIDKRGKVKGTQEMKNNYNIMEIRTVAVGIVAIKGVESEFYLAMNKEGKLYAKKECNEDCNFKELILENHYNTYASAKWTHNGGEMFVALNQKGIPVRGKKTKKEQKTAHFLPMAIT
Test: filter; DPBS, 37 C
Conditions: tags: Upstate Biotechnology; label: 32P
The entries below are paired with their reported Kd.
Express the reported value numerically, then name its unit.

[
  {
    "Binder": "11N (ssRNA, 2'-NH2 pyrimidines) RNA: GGGAGGACGAUGCGGGGGCCGGAUUUGAACCGACGACUUCGGGUUAUGAGCCCGACGUCAGACGACUCGCCCGA",
    "Kd": "1.28 nM"
  },
  {
    "Binder": "28N (ssRNA, 2'-NH2 pyrimidines) RNA: GGGAGGACGAUGCGGUUGCUCUACAAUGACGCGGUGACUCCGCAGUUCUUGGACACAGACGACUCGCCCGA",
    "Kd": "2.54 nM"
  },
  {
    "Binder": "42F (ssRNA, 2'-F pyrimidines) RNA: GGGAGGACGAUGCGGCGACACAAUAGCCUUUGAUCCCAUGAUGGCUCGCCGUGCCCAGACGACUCGCCCGA",
    "Kd": "0.9 nM"
  },
  {
    "Binder": "27F (ssRNA, 2'-F pyrimidines) RNA: GGGAGGACGAUGCGGCAGUCUGGAUCUCUAUUGGAAUUUAGUCCUCAACUGUGCCCCAGACGACUCGCCCGA",
    "Kd": "1.52 nM"
  }
]

Now take the following binder into account.
Give its Kd value. Item: 43F (ssRNA, 2'-F pyrimidines) RNA: GGGAGGACGAUGCGGUGUAGUUUCCCUGUAUGCCAUUCUUUCCCAUGCCGCACGCCAGACGACUCGCCCGA
1.13 nM
